system: K4 kissing-loop RNA reporter; experiment: apparent KD of K4 kissing-loop reporter; higher = weaker reporter binding; details: Eterna round: R107; input ligand: none;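 note: bound reporter read as fluorescence of individual clusters on recovered sequencing chips by microscopy, with normalized cluster intensities fitted with a binding model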
Entry flag: 1 (yes) if apparent KD of K4 kissing-loop reporter reaches 0.6 µM; 0 (no) if it does not.

Example entries begin here.
{"chainSequence": "GGAUAGGACAGAGGAUAUGGUAGUGAUGUUACCAAACUGGUUACUAAUGUCAGAAAACUGGCAAAUCCAGAAGGCUGUCCUAUCG [KL-XFMN-B13]", "groupLabel": "0 (no)"}
{"chainSequence": "UGUGUUUACCUGACUCAGUGAUGUUGAGAAGGAGCGUGAGAAAUCACAGGUAGGUCGCUCAACCUAAAUUCAGGUGAGCACUAAA", "groupLabel": "0 (no)"}
{"chainSequence": "GGAUCGCAUGGCGAAAAGCCAUGCGAUCCACGAGGACCGGUACGGCCGCCACUCGCCGGAGUGAUGUUCCGCUACAGAUCUUAAA", "groupLabel": "0 (no)"}
{"chainSequence": "CGUAGUUGGGCGGCCGCCACUUGAACAGCUUUGCCAAAGGCAGAGCUCUAGAGUGAUGUUCUGGCAAGGACCGGGUCCAACUACA [#02 K4 Tryptophan B Same State]", "groupLabel": "1 (yes)"}
{"chainSequence": "UCCUGCAAUCGCCCACGAAAGUGGAUUGAUACCAGAGUCGAAAGACUCCCUUGGCAGCGAGUGAUGUUCGAAGCAGGUAAAUAAA", "groupLabel": "0 (no)"}

Exam item: Is reported apparent KD of K4 kissing-loop reporter greater than or equal to 0.6 µM here: AAAAUAAACCAGUGAUGUUGGUGUCCAGAUACCAGCGAUAAUCAUCGCCCUUGGCAGCUGCGGACGUACAAAAUAAGUACGUCCU [MatMod 12 - Jieux - Same State - Theophylline A]
Marked response: 1 (yes)

Origin of measurements: the supplement of paper PMC9170038
